Overview of recorded %Inh for various compounds
test system: CAMK2D; conditions: concentration: 1 μM,replicates: in singlicate; n = 1;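 also: KINOMEscan kinase panel screen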
Reply numerically in %, unit not repeated.

Example cases with answers are listed next.
C[C@@H](Oc1cc(-c2cnn(C3CCNCC3)c2)cnc1N)c1c(Cl)ccc(F)c1Cl ... 16
CCN(CC)CCCCNc1ncc2cc(-c3c(Cl)cccc3Cl)c(NC(=O)NC(C)(C)C)nc2n1 ... 9
CNC(=O)c1ccccc1Sc1ccc2c(/C=C/c3ccccn3)n[nH]c2c1 ... 3

Would you kindly look at the next entry?
INPUT: Give %Inh (CAMK2D) of the following compound: Cl.Oc1cc(-c2nc(-c3ccccc3)[nH]c2-c2ccncc2)ccc1Cl
OUTPUT: 0

====

Overview of recorded %Inh for various compounds
system: JNK3; construct: gene MAPK10; details: concentration: 1 μM,replicates: in singlicate; n = 1
Reply numerically in %, unit not repeated.

Example cases with answers are listed next.
Cl.Cl.Nc1nc(-c2ccc3c(N)n[nH]c3c2)cc(N2CCCC(NC(=O)c3ccccc3)C2)n1 (stereo not shown) ... 2
Cc1ccc2c(-c3ccncc3)c(-c3ccc(F)cc3)nn2c1.Cl ... 98.8
Cl.Cl.NC[C@H](CC1CCCCC1)NC(=O)c1cc(Br)c(-c2ccnc3[nH]ccc23)s1 ... 3
C=CC(=O)Nc1cc2c(Nc3ccc(F)c(Cl)c3)ncnc2cc1OCCCN1CCOCC1 ... 50
Cc1n[nH]c2ccc(-c3cc(OC[C@@H](N)Cc4ccccc4)cnc3-c3ccoc3)cc12.O=C(O)C(F)(F)F.O=C(O)C(F)(F)F ... 0
CN(C)CCOc1ccc(-c2cc(-c3c[nH]nc3-c3ccccn3)ccn2)cc1 ... 65
Cl.Cl.NC[C@H](Cc1ccc(C(F)(F)F)cc1)NC(=O)c1cc(Br)c(-c2ccnc3[nH]ccc23)s1 ... 0
CC(C)N1C(=O)Cc2cc(Nc3ncc(C(F)(F)F)c(NCc4cccc(S(C)(=O)=O)c4)n3)ccc21 ... 61

INPUT: Report %Inh for CCN(CC)CCOc1ccc(Nc2ncc3cc(-c4c(Cl)cccc4Cl)c(=O)n(C)c3n2)cc1 please.
OUTPUT: 52

INPUT: Report %Inh for Nc1nc(Nc2ccccc2)cc(-c2ccc3c(N)n[nH]c3c2)n1 please.
OUTPUT: 0

====

test system: LYN; conditions: concentration: 1 μM,replicates: in singlicate; n = 1
measured-attribute: %Inh (%)
Reply numerically in %, unit not repeated.

Example cases with answers are listed next.
Cc1ccc2c(-c3ccncc3)c(-c3ccc(F)cc3)nn2c1.Cl [GW461484] ... 41
NC(=O)c1cc(-c2ccccc2)cc2c(C3CCNCC3)c[nH]c12 [GSK301362] ... 4

Would you kindly look at the next entry?
INPUT: Report %Inh for CCN(CC)CCCCNc1ncc2cc(-c3c(Cl)cccc3Cl)c(NC(=O)NC(C)(C)C)nc2n1 please.
OUTPUT: 98

====

test system: PAK6; conditions: concentration: 1 μM,replicates: in singlicate; n = 1
Record criterion met whenever %Inh is at 20% or higher; record criterion not met when lower.

Recorded results for 4 compounds are shown here.
CCN(CC)CCCCNc1ncc2cc(-c3c(Cl)cccc3Cl)c(NC(=O)NC(C)(C)C)nc2n1 ... criterion not met
CN(C)CCOc1ccc(-c2cc(-c3c[nH]nc3-c3ccccn3)ccn2)cc1 ... criterion met
CC(C)N1C(=O)Cc2cc(Nc3ncc(C(F)(F)F)c(NCc4cccc(S(C)(=O)=O)c4)n3)ccc21 ... criterion not met
Cl.Cl.NC[C@H](CC1CCCCC1)NC(=O)c1cc(Br)c(-c2ccnc3[nH]ccc23)s1 ... criterion met

INPUT: Does %Inh meet or surpass 20% for Cc1ccc2c(-c3ccncc3)c(-c3ccc(F)cc3)nn2c1.Cl ?
OUTPUT: criterion not met

INPUT: Does %Inh meet or surpass 20% for CN(C)CC(O)COc1ccc(Nc2nccc(-c3cnn4nc(N5CCOCC5)ccc34)n2)cc1 (stereo not drawn) ?
OUTPUT: criterion met

INPUT: Does %Inh meet or surpass 20% for Cc1cc(C(=O)Nc2ccc(Oc3ccc4nc(NC(=O)C5CC5)cn4n3)cc2)nn1-c1ccccc1 ?
OUTPUT: criterion not met

INPUT: Does %Inh meet or surpass 20% for Cc1occc1-c1nc(N)c(OC[C@@H](N)Cc2c[nH]c3ccccc23)cc1-c1cc2c(C)n[nH]c2cn1 ?
OUTPUT: criterion not met

INPUT: Does %Inh meet or surpass 20% for Cl.Cl.NC[C@H](Cc1ccc(C(F)(F)F)cc1)NC(=O)c1cc(Br)c(-c2ccnc3[nH]ccc23)s1 ?
OUTPUT: criterion met

====

Overview of recorded %Inh for various compounds
tested on: TIE1; details: concentration: 1 μM,replicates: in singlicate; n = 1
Reply numerically in %, unit not repeated.

Example cases with answers are listed next.
CC(C)Nc1cc(-c2ccc3c(N)n[nH]c3c2)nc(N)n1 ... 3
CN(C)CC(O)COc1ccc(Nc2nccc(-c3cnn4nc(N5CCOCC5)ccc34)n2)cc1 (centres unmarked) ... 41
CCN(CC)CCOc1ccc(Nc2ncc3cc(-c4c(Cl)cccc4Cl)c(=O)n(C)c3n2)cc1 ... 94
CCN(CC)CCCCNc1ncc2cc(-c3c(Cl)cccc3Cl)c(NC(=O)NC(C)(C)C)nc2n1 ... 74

INPUT: Give %Inh (TIE1) of the following compound: Cc1cc(C(=O)Nc2ccc(Oc3ccc4nc(NC(=O)C5CC5)cn4n3)cc2)nn1-c1ccccc1
OUTPUT: 82

====

system: PRKG2; settings: concentration: 1 μM,replicates: in singlicate; n = 1
Overview of recorded %Inh for various molecules

Example cases with answers are listed next.
NC(=O)c1cc(-c2ccccc2)cc2c(C3CCNCC3)c[nH]c12 ... 0%
CC(C)Nc1cc(-c2ccc3c(N)n[nH]c3c2)nc(N)n1 ... 42%
C[C@H]1Oc2cc(cnc2N)-c2c(nn(C)c2C#N)CN(C)C(=O)c2ccc(F)cc21 ... 10%

INPUT: Give %Inh (PRKG2) of the following molecule: Cl.Oc1cc(-c2nc(-c3ccccc3)[nH]c2-c2ccncc2)ccc1Cl
OUTPUT: 0%

INPUT: Give %Inh (PRKG2) of the following molecule: C[C@@H](Oc1cc(-c2cnn(C3CCNCC3)c2)cnc1N)c1c(Cl)ccc(F)c1Cl
OUTPUT: 3%

INPUT: Give %Inh (PRKG2) of the following molecule: CN(C)CCOc1ccc(-c2cc(-c3c[nH]nc3-c3ccccn3)ccn2)cc1
OUTPUT: 12%

INPUT: Give %Inh (PRKG2) of the following molecule: O=C(NCCCN1CCOC1=O)c1cnc(NCc2cc(Cl)ccc2Cl)nc1NC1CCCC1
OUTPUT: 21%

====

Overview of recorded %Inh for various compounds
tested on: PDPK1; conditions: concentration: 1 μM,replicates: in singlicate; n = 1
Reply numerically in %, unit not repeated.

INPUT: Report %Inh for O=C(NCCNc1ccnc(NCc2ccc(F)cc2)n1)c1cc2ccccc2s1 please.
OUTPUT: 15

INPUT: Report %Inh for Cc1occc1-c1nc(N)c(OC[C@@H](N)Cc2c[nH]c3ccccc23)cc1-c1cc2c(C)n[nH]c2cn1 please.
OUTPUT: 0

INPUT: Report %Inh for COc1ccc(C[C@@H](CN)NC(=O)c2cc(Br)c(-c3ccnc4[nH]ccc34)s2)cc1.Cl.Cl please.
OUTPUT: 32

INPUT: Report %Inh for Cl.Cl.Nc1nc(-c2ccc3c(N)n[nH]c3c2)cc(N2CCCC(NC(=O)c3ccccc3)C2)n1 (stereo not shown) please.
OUTPUT: 85

====

test system: GRK1; details: concentration: 1 μM,replicates: in singlicate; n = 1
measured-attribute: %Inh (%)
Reply numerically in %, unit not repeated.

Example cases with answers are listed next.
C[C@@H](Oc1cc(-c2cnn(C3CCNCC3)c2)cnc1N)c1c(Cl)ccc(F)c1Cl ... 15
Cc1n[nH]c2ccc(-c3cc(OC[C@@H](N)Cc4ccccc4)cnc3-c3ccoc3)cc12.O=C(O)C(F)(F)F.O=C(O)C(F)(F)F ... 0
Nc1nc(Nc2ccccc2)cc(-c2ccc3c(N)n[nH]c3c2)n1 ... 0
O=C(NCCCN1CCOC1=O)c1cnc(NCc2cc(Cl)ccc2Cl)nc1NC1CCCC1 ... 22

Would you kindly look at the next entry?
INPUT: Report %Inh for Cc1ccc2c(-c3ccncc3)c(-c3ccc(F)cc3)nn2c1.Cl please.
OUTPUT: 0

====

Overview of recorded %Inh for various compounds
tested on: DAPK2; conditions: concentration: 1 μM,replicates: in singlicate; n = 1
Reply numerically in %, unit not repeated.

INPUT: Give %Inh (DAPK2) of the following compound: Cc1ccc2c(-c3ccncc3)c(-c3ccc(F)cc3)nn2c1.Cl
OUTPUT: 7

INPUT: Give %Inh (DAPK2) of the following compound: O=C(NCCCN1CCOC1=O)c1cnc(NCc2cc(Cl)ccc2Cl)nc1NC1CCCC1
OUTPUT: 7
